These entries and their values trace back to PubChem BioAssay (NCI).

TGI: recorded values
Tested on: IGROV1 ovarian
experimental.details: NCI tumour cell line growth inhibition, 48 h

Some compounds with recorded TGI:
Task: Can you look up the measured TGI of CN(C)c1ccc(Cc2cc(C(C)(C)C)cc(C(C)(C)C)c2O)cc1 for me?
Output: 47.8 µM

Task: Value lookup for TGI; key = COC(=O)[C@H](Cc1c[nH]c2ccccc12)NC(=O)OCC1OC(n2cc(C)c(=O)[nH]c2=O)CC1N=[N+]=[N-] (some centres undefined)
Output: > 100 µM

Task: Please report the recorded TGI for COc1ccc2[nH]c(C(=O)N3CCN(C(=O)OCc4ccc5c(Br)cc(Br)c(O)c5n4)CC3)cc2c1 .
Output: 1.36 µM

Next:
Task: Reported TGI for CCOC(=O)C1N(S(=O)(=O)c2ccc(C)cc2)CCC12C(c1ccc(OC)c(OC)c1)=Nc1ccccc12 (centres undefined) : what is it?
Output: > 100 µM
